Cited source for all entries: ChEMBL document CHEMBL5385894

molecular target: G-protein coupled bile acid receptor 1 (Homo sapiens) (UniProt Q8TDU6); experiment: Agonist activity at human TGR5 expressed in HEK293 cells at 10 uM incubated for 30 mins by SEAP reporter gene based assay relative to control; assay type: functional, cell-based
Sequence (Q8TDU6 whole entry): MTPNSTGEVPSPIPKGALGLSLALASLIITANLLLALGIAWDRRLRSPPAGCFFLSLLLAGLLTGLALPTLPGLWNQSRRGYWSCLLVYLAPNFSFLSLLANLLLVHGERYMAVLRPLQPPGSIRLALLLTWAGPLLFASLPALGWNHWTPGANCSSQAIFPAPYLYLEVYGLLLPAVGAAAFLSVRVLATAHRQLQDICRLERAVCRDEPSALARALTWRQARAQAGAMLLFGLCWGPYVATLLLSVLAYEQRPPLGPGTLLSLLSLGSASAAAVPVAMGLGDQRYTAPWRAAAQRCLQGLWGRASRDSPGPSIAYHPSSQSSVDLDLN
Activity calls are given as the source filed them. The rule behind the calls is not given here.
readout.name: Activity

// solved cases for Activity follow
C[C@H](CCCC(=O)O)[C@H]1CC[C@@H]2[C@@H]1[C@H](C)C[C@H]1[C@H]2[C@H](O)C[C@@H]2C[C@H](O)CC[C@@]21C inactive
CC[C@H]1[C@@H](O)[C@H]2[C@@H]3CC[C@@H]([C@H](C)C(=O)O)[C@H]3[C@H](C)C[C@@H]2[C@@]2(C)CC[C@@H](O)C[C@@H]12 10%
CC[C@H]1[C@@H](O)[C@H]2[C@@H]3CC[C@H]([C@H](C)CCC(=O)O)[C@H]3[C@H](C)C[C@@H]2[C@@]2(C)CC[C@@H](O)C[C@@H]12 33%
C[C@H](CCC(=O)O)[C@H]1CC[C@@H]2[C@@H]1[C@H](C)C[C@H]1[C@H]2[C@H](O)C[C@@H]2C[C@H](O)CC[C@@]21C inactive

Given the molecule C[C@H](CCCCC(=O)O)[C@H]1CC[C@@H]2[C@@H]1[C@H](C)C[C@H]1[C@H]2[C@H](O)C[C@@H]2C[C@H](O)CC[C@@]21C , what is its reported Activity?
inactive

Given the molecule CC[C@H]1[C@@H](O)[C@H]2[C@@H]3CC[C@H]([C@H](C)CCCC(=O)NCCS(=O)(=O)O)[C@H]3[C@H](C)C[C@@H]2[C@@]2(C)CC[C@@H](O)C[C@@H]12 , what is its reported Activity?
inactive

Given the molecule CC[C@H]1[C@@H](O)[C@H]2[C@@H]3CC[C@H]([C@H](C)CC(=O)O)[C@H]3[C@H](C)C[C@@H]2[C@@]2(C)CC[C@@H](O)C[C@@H]12 , what is its reported Activity?
11%

Given the molecule C[C@H](CC(=O)NCCS(=O)(=O)O)[C@@H]1CC[C@@H]2[C@@H]1[C@H](C)C[C@H]1[C@H]2[C@H](O)C[C@@H]2C[C@H](O)CC[C@@]21C , what is its reported Activity?
7%
